The entries below come with measured percent inhibition of Factor XI values attached.
System: human Factor XI mRNA
Test: Dose-dependent antisense inhibition in HepG2 cells, lipofectin (Example 2)
Format: cell-based
Conditions: 9.375 nM, approximately 16 hours
Experimental: Cells were plated at a density of 10,000 cells per well and transfected using lipofectin reagent with 9.375 nM, 18.75 nM, 37.5 nM, 75 nM, and 150 nM concentrations of antisense oligonucleotide, as specified in Table 3. After a treatment period of approximately 16 hours, RNA was isolated from the cells and Factor XI mRNA levels were measured by quantitative real-time PCR. […] Factor XI mRNA levels were adjusted according to total RNA content, as measured by RIBOGREEN®. […]
In the oligonucleotide strings, read from the 5' end, every base follows the letter of its sugar. An asterisk marks phosphorothioate; unmarked linkages are phosphodiester. Other units and linkages are bracketed, terminal groups are in braces. A string of capitals states the bases alone. e = 2'-O-(2-methoxyethyl) (MOE); [5mC] = 5-methylcytosine; d = 2'-deoxy (DNA)
Write down the numeric answer in % and omit the unit.

412223 (antisense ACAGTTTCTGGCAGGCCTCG; sugars from the 5' end e5 d10 e5, backbone and methylation of C not given here) [compound 412223]
33
413467 (antisense eG*eG*eT*e[5mC]*e[5mC]*dA*d[5mC]*dA*dT*dA*dA*dA*dT*dG*dT*e[5mC]*eT*eT*eT*eG) [compound 413467]
2
412203 (antisense eA*eA*eT*eG*eT*d[5mC]*dT*dT*dT*dG*dT*dT*dG*d[5mC]*dA*eA*eG*e[5mC]*eG*e[5mC]) [compound 412203]
29

Record 412224 (antisense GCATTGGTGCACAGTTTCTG; sugars from the 5' end e5 d10 e5, backbone and methylation of C not given here) [compound 412224] has human Factor XI mRNA percent inhibition of Factor XI equal to 24

Record 413468 (antisense eG*eT*e[5mC]*eT*eA*dG*dG*dT*d[5mC]*d[5mC]*dA*d[5mC]*dA*dT*dA*eA*eA*eT*eG*eT) [compound 413468] has human Factor XI mRNA percent inhibition of Factor XI equal to 14

Record 412225 (antisense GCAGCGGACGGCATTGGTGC; sugars from the 5' end e5 d10 e5, backbone and methylation of C not given here) [compound 412225] has human Factor XI mRNA percent inhibition of Factor XI equal to 32

---

tested on: human Factor XI mRNA; assay: Dose-dependent inhibition in HepG2 cells, electroporation (Example 4); type: cell-based; details: 0.7 μM, 16 hours
In the oligonucleotide strings, read from the 5' end, every base follows the letter of its sugar. An asterisk marks phosphorothioate; unmarked linkages are phosphodiester. Other units and linkages are bracketed, terminal groups are in braces. A string of capitals states the bases alone. e = 2'-O-(2-methoxyethyl) (MOE); [5mC] = 5-methylcytosine; d = 2'-deoxy (DNA)
readout-label: percent inhibition of Factor XI mRNA, relative to untreated control cells

Below, each entry is followed by its recorded percent inhibition of Factor XI mRNA, relative to untreated control cells result.
416999 (antisense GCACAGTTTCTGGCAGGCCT; 2-13-5 gapmer, wing sugar chemistry not given here, further chemistry not given here) [compound 416999]
20%
412206 (antisense e[5mC]*e[5mC]*eG*eT*eG*d[5mC]*dA*dT*d[5mC]*dT*dT*dT*d[5mC]*dT*dT*eG*eG*e[5mC]*eA*eT) [compound 412206]
22%
416985 (antisense eG*e[5mC]*dA*dA*d[5mC]*d[5mC]*dG*dG*dG*dA*dT*dG*dA*dT*dG*eA*eG*eT*eG*e[5mC]) [compound 416985]
12%
416864 (antisense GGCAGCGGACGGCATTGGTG; 5-10-5 gapmer, wing sugar chemistry not given here, further chemistry not given here) [compound 416864]
32%
416941 (antisense eG*eG*e[5mC]*dA*dG*d[5mC]*dG*dG*dA*d[5mC]*dG*dG*d[5mC]*dA*dT*dT*dG*eG*eT*eG) [compound 416941]
16%

percent inhibition of Factor XI mRNA, relative to untreated control cells for 416838 (antisense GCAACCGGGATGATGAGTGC; 5-10-5 gapmer, wing sugar chemistry not given here, further chemistry not given here) [compound 416838] is 5%

percent inhibition of Factor XI mRNA, relative to untreated control cells for 416856 (antisense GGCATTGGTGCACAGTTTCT; 5-10-5 gapmer, wing sugar chemistry not given here, further chemistry not given here) [compound 416856] is 0%

percent inhibition of Factor XI mRNA, relative to untreated control cells for 416931 (antisense eG*eG*e[5mC]*dA*dT*dT*dG*dG*dT*dG*d[5mC]*dA*d[5mC]*dA*dG*dT*dT*eT*e[5mC]*eT) [compound 416931] is 7%

percent inhibition of Factor XI mRNA, relative to untreated control cells for 416908 (antisense eG*e[5mC]*eA*dA*d[5mC]*d[5mC]*dG*dG*dG*dA*dT*dG*dA*dT*dG*dA*dG*eT*eG*e[5mC]) [compound 416908] is 7%

percent inhibition of Factor XI mRNA, relative to untreated control cells for 417002 (antisense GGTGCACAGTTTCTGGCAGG; 2-13-5 gapmer, wing sugar chemistry not given here, further chemistry not given here) [compound 417002] is 32%

percent inhibition of Factor XI mRNA, relative to untreated control cells for 413467 (antisense eG*eG*eT*e[5mC]*e[5mC]*dA*d[5mC]*dA*dT*dA*dA*dA*dT*dG*dT*e[5mC]*eT*eT*eT*eG) [compound 413467] is 5%

percent inhibition of Factor XI mRNA, relative to untreated control cells for 416989 (antisense eG*eA*dG*dA*dT*dT*d[5mC]*dT*dT*dT*dG*dG*dG*d[5mC]*d[5mC]*eA*eT*eT*e[5mC]*e[5mC]) [compound 416989] is 32%

percent inhibition of Factor XI mRNA, relative to untreated control cells for 416842 (antisense eT*eG*eA*eG*eA*dT*dT*d[5mC]*dT*dT*dT*dG*dG*dG*d[5mC]*e[5mC]*eA*eT*eT*e[5mC]) [compound 416842] is 0%

percent inhibition of Factor XI mRNA, relative to untreated control cells for 416825 (antisense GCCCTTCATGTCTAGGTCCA; 5-10-5 gapmer, wing sugar chemistry not given here, further chemistry not given here) [compound 416825] is 27%

percent inhibition of Factor XI mRNA, relative to untreated control cells for 417000 (antisense eT*eG*d[5mC]*dA*d[5mC]*dA*dG*dT*dT*dT*d[5mC]*dT*dG*dG*d[5mC]*eA*eG*eG*e[5mC]*e[5mC]) [compound 417000] is 46%

percent inhibition of Factor XI mRNA, relative to untreated control cells for 416945 (antisense eA*eA*dT*dG*dT*d[5mC]*dT*dT*dT*dG*dT*dT*dG*d[5mC]*dA*eA*eG*e[5mC]*eG*e[5mC]) [compound 416945] is 48%

---

The entries below come with measured Kidney weight as percentage of body weight values attached.
experiment: Tolerability in CD1 mice: body and organ weight (Example 25); format: in vivo; conditions: 50 mg/kg s.c. twice per week for 6 weeks, end of study
In the oligonucleotide strings, read from the 5' end, every base follows the letter of its sugar. An asterisk marks phosphorothioate; unmarked linkages are phosphodiester. Other units and linkages are bracketed, terminal groups are in braces. A string of capitals states the bases alone. e = 2'-O-(2-methoxyethyl) (MOE); [5mC] = 5-methylcytosine; d = 2'-deoxy (DNA)

Below, each entry is followed by its recorded Kidney weight as percentage of body weight result.
ISIS 445530: microwalk gapmer of Table 51 (antisense eG*e[5mC]*eA*eT*eT*dG*dG*dT*dG*d[5mC]*dA*d[5mC]*dA*eG*eT*eT*eT*e[5mC])
1.5%
ISIS 445504: microwalk gapmer of Table 51 (antisense eG*eG*e[5mC]*eA*eT*eT*dG*dG*dT*dG*d[5mC]*dA*d[5mC]*dA*eG*eT*eT*eT*e[5mC]*eT)
1.6%
ISIS 445498: microwalk gapmer of Table 51 (antisense eG*eG*eT*eG*e[5mC]*eA*d[5mC]*dA*dG*dT*dT*dT*d[5mC]*dT*eG*eG*e[5mC]*eA*eG*eG)
1.6%
ISIS 445532: microwalk gapmer of Table 51 (antisense e[5mC]*eG*eG*e[5mC]*eA*dT*dT*dG*dG*dT*dG*d[5mC]*dA*e[5mC]*eA*eG*eT*eT)
1.6%
ISIS 416850: gapmer of Table 8 (antisense eT*eG*e[5mC]*eA*e[5mC]*dA*dG*dT*dT*dT*d[5mC]*dT*dG*dG*d[5mC]*eA*eG*eG*e[5mC]*e[5mC])
1.5%

Kidney weight as percentage of body weight for ISIS 445531: microwalk gapmer of Table 51 (antisense eG*eG*e[5mC]*eA*eT*dT*dG*dG*dT*dG*d[5mC]*dA*d[5mC]*eA*eG*eT*eT*eT) is 1.5%

Kidney weight as percentage of body weight for ISIS 445513: microwalk gapmer of Table 51 (antisense eG*e[5mC]*eA*eG*e[5mC]*eG*dG*dA*d[5mC]*dG*dG*d[5mC]*dA*dT*eT*eG*eG*eT*eG*e[5mC]) is 1.6%

Kidney weight as percentage of body weight for ISIS 445509: microwalk gapmer of Table 51 (antisense e[5mC]*eG*eG*eA*e[5mC]*eG*dG*d[5mC]*dA*dT*dT*dG*dG*dT*eG*e[5mC]*eA*e[5mC]*eA*eG) is 1.6%

Kidney weight as percentage of body weight for ISIS 445505: microwalk gapmer of Table 51 (antisense e[5mC]*eG*eG*e[5mC]*eA*eT*dT*dG*dG*dT*dG*d[5mC]*dA*d[5mC]*eA*eG*eT*eT*eT*e[5mC]) is 1.5%

Kidney weight as percentage of body weight for ISIS 445522: microwalk gapmer of Table 51 (antisense eG*e[5mC]*eA*e[5mC]*eA*dG*dT*dT*dT*d[5mC]*dT*dG*dG*e[5mC]*eA*eG*eG*e[5mC]) is 1.7%

Kidney weight as percentage of body weight for ISIS 445503: microwalk gapmer of Table 51 (antisense eG*e[5mC]*eA*eT*eT*eG*dG*dT*dG*d[5mC]*dA*d[5mC]*dA*dG*eT*eT*eT*e[5mC]*eT*eG) is 1.4%
